src = patent US11286268B1

Molecular target: recombinant eIF4E (Homo sapiens (Human), UniProt P06730)
Sequence (P06730 whole entry): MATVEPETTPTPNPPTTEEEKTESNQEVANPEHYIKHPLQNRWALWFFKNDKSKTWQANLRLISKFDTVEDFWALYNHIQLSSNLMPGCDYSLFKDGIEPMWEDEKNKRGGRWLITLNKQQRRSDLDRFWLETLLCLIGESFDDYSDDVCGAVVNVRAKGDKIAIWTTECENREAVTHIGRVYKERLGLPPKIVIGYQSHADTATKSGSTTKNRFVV
Assay: Fluorescence polarization competition assay for eIF4E binding potency
Details: fluorescence polarization competition, 75 nM recombinant eIF4E, 20 nM EDA-m7GDP-ATTO-550; IC50 class; read-out: elF4E FP
ENDPOINT_LABEL: IC50

Reference set (5 entries):
>>> reported_result("Cc1nc2cc(C(F)(F)F)cc(C#N)c2c(=O)n1CCOc1ccc(Cl)cc1-c1cc(Cl)nc2c(C(=O)O)csc12")
"< 50 nM"
>>> reported_result("Cc1nc2cc(F)c(OC(F)F)c(C#N)c2c(=O)n1CCOc1ccc(Cl)cc1-c1ccnc2c(C(=O)O)csc12")
"< 50 nM"
>>> reported_result("Cc1cc(-c2cc(Cl)ccc2OCCn2c(C)nc3cc4c(c(C#N)c3c2=O)C(N(C)C)CC4)c2scc(C(=O)O)c2n1 (stereo not shown)")
"< 50 nM"
>>> reported_result("COc1cc(-c2cc(Cl)ccc2OCCn2c(C)nc3cc(C(F)(F)F)cc(C#N)c3c2=O)c2scc(C(=O)O)c2n1")
"< 50 nM"
>>> reported_result("N#Cc1cc2c(=O)n(CCOc3ccc(Cl)cc3-c3cc(C(=O)O)cc(F)c3F)cnc2cn1")
"> 1000 nM"

Ask | I have this compound here, Cc1nc2cnc(C3CC3)c(C#N)c2c(=O)n1CCOc1ccc(Cl)cc1Sc1nc(C(=O)O)cs1 , and I need its recorded IC50.
Reply | 50 to 1000 nM

Ask | Next record, please: Cc1nc2cc(C(F)F)c(CN(C)C)c(C#N)c2c(=O)n1CC#Cc1ccc(Cl)cc1-c1ccnc2c(C(=O)O)csc12
Reply | < 50 nM
